Target: UniProt:P06213
Sequence (P06213 28-1382): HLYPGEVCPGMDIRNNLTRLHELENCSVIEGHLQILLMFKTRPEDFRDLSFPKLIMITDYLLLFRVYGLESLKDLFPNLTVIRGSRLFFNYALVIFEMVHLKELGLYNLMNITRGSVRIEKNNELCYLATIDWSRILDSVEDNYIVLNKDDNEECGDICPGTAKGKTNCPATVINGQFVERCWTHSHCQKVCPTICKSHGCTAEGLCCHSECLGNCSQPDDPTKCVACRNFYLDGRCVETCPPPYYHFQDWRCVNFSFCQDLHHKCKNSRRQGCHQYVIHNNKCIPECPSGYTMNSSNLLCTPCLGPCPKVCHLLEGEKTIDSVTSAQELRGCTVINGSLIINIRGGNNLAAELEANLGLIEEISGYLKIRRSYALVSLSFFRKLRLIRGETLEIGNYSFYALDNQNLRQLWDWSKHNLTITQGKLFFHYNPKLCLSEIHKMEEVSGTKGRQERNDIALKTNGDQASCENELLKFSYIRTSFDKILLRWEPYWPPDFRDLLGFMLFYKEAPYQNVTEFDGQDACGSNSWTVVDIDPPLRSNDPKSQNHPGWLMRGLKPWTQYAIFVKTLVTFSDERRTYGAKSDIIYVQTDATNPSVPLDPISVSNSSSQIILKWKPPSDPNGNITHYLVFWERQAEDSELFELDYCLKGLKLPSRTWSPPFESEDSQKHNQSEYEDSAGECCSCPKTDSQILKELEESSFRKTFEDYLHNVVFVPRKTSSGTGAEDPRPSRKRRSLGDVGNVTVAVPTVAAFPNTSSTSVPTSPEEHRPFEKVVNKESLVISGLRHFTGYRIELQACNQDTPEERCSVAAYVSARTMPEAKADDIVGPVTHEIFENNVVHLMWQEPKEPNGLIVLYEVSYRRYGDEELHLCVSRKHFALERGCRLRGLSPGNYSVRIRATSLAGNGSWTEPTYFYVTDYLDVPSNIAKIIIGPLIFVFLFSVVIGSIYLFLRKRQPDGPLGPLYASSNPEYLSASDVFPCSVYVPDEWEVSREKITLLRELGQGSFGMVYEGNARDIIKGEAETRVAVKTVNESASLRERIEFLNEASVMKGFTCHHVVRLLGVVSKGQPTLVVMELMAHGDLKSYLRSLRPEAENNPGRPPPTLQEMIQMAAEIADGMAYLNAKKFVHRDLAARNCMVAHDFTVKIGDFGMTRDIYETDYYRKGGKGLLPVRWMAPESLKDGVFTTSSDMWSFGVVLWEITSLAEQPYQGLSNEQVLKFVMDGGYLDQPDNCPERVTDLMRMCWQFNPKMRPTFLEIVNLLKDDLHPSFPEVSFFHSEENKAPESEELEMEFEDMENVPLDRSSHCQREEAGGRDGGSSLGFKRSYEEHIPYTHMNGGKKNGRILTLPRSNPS
Assay: Protein kinase selectivity panel
Format: biochemical
Details: 1.0 μM compound, 10 μM ATP
Measured Activity at Protein Kinase Assays (% of control), IR(h) values are reported for all entries that follow.

Solved entries (count: 3):
compound	result
CN(C)c1cc2cc(n1)CCCn1cc(c3ccccc31)C1=C(C(=O)NC1=O)c1cn(c3ccccc13)CCC2 [Cpd 2]	102 % of control
CN(C)c1nc2ccc1CCCCn1cc(c3ccccc31)C1=C(C(=O)NC1=O)c1cn(c3ccccc13)CCC2 [Cpd 1]	91 % of control
O=C1NC(=O)C2=C1c1cn(c3ccccc13)CCCc1ccc(c(N3CCCC3)n1)CCCn1cc2c2ccccc21 [Cpd 7]	87 % of control

// next item, Activity at Protein Kinase Assays (% of control), IR(h) requested
Entry O=C1NC(=O)C2=C1c1cn(c3ccccc13)CCCc1cc(nc(N3CCCC3)c1)CCCn1cc2c2ccccc21 [Cpd 6] has what Activity at Protein Kinase Assays (% of control), IR(h)?
110 % of control

###

Measured Activity at Protein Kinase Assays (% of control), PDGFRβ(h) values are reported for all entries that follow.
Molecular target: PDGFRβ(h) (Homo sapiens, UniProt P09619)
Sequence (P09619 33-1106): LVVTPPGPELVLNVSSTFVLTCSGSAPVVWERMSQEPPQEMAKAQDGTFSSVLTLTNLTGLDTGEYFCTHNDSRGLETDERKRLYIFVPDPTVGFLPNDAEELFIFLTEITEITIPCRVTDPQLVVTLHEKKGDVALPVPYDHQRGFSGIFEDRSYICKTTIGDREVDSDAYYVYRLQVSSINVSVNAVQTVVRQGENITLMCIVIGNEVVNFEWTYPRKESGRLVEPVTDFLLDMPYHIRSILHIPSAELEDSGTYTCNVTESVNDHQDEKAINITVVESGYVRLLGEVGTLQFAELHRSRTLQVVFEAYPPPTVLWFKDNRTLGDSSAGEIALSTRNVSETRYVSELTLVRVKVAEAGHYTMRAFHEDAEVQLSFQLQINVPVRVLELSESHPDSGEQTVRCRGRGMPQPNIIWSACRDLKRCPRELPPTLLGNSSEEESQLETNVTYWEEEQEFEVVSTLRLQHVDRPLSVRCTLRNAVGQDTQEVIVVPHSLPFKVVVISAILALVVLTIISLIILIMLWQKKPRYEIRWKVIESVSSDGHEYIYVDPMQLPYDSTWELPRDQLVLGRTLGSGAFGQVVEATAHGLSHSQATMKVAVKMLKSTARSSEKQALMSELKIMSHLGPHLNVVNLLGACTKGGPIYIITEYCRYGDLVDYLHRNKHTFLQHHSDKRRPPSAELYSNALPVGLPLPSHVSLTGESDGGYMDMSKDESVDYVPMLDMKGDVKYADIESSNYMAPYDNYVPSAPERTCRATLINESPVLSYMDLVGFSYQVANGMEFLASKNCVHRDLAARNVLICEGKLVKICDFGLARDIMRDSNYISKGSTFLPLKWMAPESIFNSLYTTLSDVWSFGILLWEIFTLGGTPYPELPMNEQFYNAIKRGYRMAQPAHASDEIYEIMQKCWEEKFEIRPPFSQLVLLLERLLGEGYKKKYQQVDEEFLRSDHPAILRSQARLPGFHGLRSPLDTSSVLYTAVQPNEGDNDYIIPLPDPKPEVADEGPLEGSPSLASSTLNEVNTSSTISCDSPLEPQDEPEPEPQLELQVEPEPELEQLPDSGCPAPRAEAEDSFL
Assay: Protein kinase selectivity panel
Format: biochemical
Details: 1.0 μM compound, 10 μM ATP

Solved entries (count: 3):
O=C1NC(=O)C2=C1c1cn(c3ccccc13)CCCc1cc(nc(N3CCCC3)c1)CCCn1cc2c2ccccc21 103 % of control
O=C1NC(=O)C2=C1c1cn(c3ccccc13)CCCc1ccc(c(N3CCCC3)n1)CCCn1cc2c2ccccc21 105 % of control
CN(C)c1nc2ccc1CCCCn1cc(c3ccccc31)C1=C(C(=O)NC1=O)c1cn(c3ccccc13)CCC2 147 % of control

Checklist item: Activity at Protein Kinase Assays (% of control), PDGFRβ(h) tested on PDGFRβ(h) (Homo sapiens, UniProt P09619), entry CN(C)c1cc2cc(n1)CCCn1cc(c3ccccc31)C1=C(C(=O)NC1=O)c1cn(c3ccccc13)CCC2 , value?
101 % of control

###

Measured Activity at Protein Kinase Assays (% of control), Fyn(h) values are reported for all entries that follow.
Molecular target: Fyn(h) (Homo sapiens, UniProt P06241)
Experiment: Protein kinase selectivity panel
Type: biochemical
Details: 1.0 μM compound, 10 μM ATP

compound	assay-target	result
CN(C)c1cc2cc(n1)CCCn1cc(c3ccccc31)C1=C(C(=O)NC1=O)c1cn(c3ccccc13)CCC2 [Cpd 2]	Fyn(h) (Homo sapiens, UniProt P06241)	106 % of control
O=C1NC(=O)C2=C1c1cn(c3ccccc13)CCCc1ccc(c(N3CCCC3)n1)CCCn1cc2c2ccccc21 [Cpd 7]	Fyn(h) (Homo sapiens, UniProt P06241)	103 % of control
O=C1NC(=O)C2=C1c1cn(c3ccccc13)CCCc1cc(nc(N3CCCC3)c1)CCCn1cc2c2ccccc21 [Cpd 6]	Fyn(h) (Homo sapiens, UniProt P06241)	106 % of control

// next item, Activity at Protein Kinase Assays (% of control), Fyn(h) requested
Checklist item: Activity at Protein Kinase Assays (% of control), Fyn(h) tested on Fyn(h) (Homo sapiens, UniProt P06241), entry CN(C)c1nc2ccc1CCCCn1cc(c3ccccc31)C1=C(C(=O)NC1=O)c1cn(c3ccccc13)CCC2 [Cpd 1] , value?
103 % of control

###

Measured Activity at Protein Kinase Assays (% of control), Lyn(m) values are reported for all entries that follow.
Target: Lyn(m) (Mus musculus)
Sequence (P25911 whole entry): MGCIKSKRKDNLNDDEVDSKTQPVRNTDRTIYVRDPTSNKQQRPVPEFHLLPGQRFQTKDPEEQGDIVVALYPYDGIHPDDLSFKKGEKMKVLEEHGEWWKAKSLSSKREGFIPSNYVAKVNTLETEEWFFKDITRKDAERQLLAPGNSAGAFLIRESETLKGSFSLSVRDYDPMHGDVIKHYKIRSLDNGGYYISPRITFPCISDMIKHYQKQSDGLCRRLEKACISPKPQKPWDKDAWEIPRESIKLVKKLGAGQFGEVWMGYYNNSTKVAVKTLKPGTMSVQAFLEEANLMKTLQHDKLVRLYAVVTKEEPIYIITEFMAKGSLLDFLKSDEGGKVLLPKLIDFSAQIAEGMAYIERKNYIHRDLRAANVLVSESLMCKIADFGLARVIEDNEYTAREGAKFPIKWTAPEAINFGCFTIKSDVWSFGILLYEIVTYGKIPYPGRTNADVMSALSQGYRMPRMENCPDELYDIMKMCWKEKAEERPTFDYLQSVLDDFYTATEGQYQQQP
Test: Protein kinase selectivity panel
Type: biochemical
Conditions: 1.0 μM compound, 10 μM ATP

Solved entries (count: 3):
CN(C)c1nc2ccc1CCCCn1cc(c3ccccc31)C1=C(C(=O)NC1=O)c1cn(c3ccccc13)CCC2 90 % of control
O=C1NC(=O)C2=C1c1cn(c3ccccc13)CCCc1cc(nc(N3CCCC3)c1)CCCn1cc2c2ccccc21 99 % of control
O=C1NC(=O)C2=C1c1cn(c3ccccc13)CCCc1ccc(c(N3CCCC3)n1)CCCn1cc2c2ccccc21 104 % of control

// next item, Activity at Protein Kinase Assays (% of control), Lyn(m) requested
Entry CN(C)c1cc2cc(n1)CCCn1cc(c3ccccc31)C1=C(C(=O)NC1=O)c1cn(c3ccccc13)CCC2 has what Activity at Protein Kinase Assays (% of control), Lyn(m)?
102 % of control

###

Target: UniProtKB Q15759
Sequence (Q15759 whole entry): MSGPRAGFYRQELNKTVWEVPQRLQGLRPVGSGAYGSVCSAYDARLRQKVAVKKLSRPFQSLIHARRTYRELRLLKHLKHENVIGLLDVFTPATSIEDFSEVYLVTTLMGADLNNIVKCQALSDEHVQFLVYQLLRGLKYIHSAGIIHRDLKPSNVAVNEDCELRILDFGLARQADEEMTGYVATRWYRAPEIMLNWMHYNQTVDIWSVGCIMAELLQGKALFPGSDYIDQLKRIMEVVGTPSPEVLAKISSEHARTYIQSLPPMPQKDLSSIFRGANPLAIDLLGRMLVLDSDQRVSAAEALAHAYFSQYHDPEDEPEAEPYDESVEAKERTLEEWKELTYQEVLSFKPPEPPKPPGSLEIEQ
Assay: Protein kinase selectivity panel
Format: biochemical
Conditions: 1.0 μM compound, 10 μM ATP
Measured Activity at Protein Kinase Assays (% of control), SAPK2b(h) values are reported for all entries that follow.

O=C1NC(=O)C2=C1c1cn(c3ccccc13)CCCc1cc(nc(N3CCCC3)c1)CCCn1cc2c2ccccc21 114 % of control

Checklist item: Activity at Protein Kinase Assays (% of control), SAPK2b(h) tested on UniProtKB Q15759, entry O=C1NC(=O)C2=C1c1cn(c3ccccc13)CCCc1ccc(c(N3CCCC3)n1)CCCn1cc2c2ccccc21 , value?
99 % of control

What about CN(C)c1cc2cc(n1)CCCn1cc(c3ccccc31)C1=C(C(=O)NC1=O)c1cn(c3ccccc13)CCC2 ?
119 % of control

What about CN(C)c1nc2ccc1CCCCn1cc(c3ccccc31)C1=C(C(=O)NC1=O)c1cn(c3ccccc13)CCC2 ?
104 % of control

###

Target: UniProt Q15139
Sequence (Q15139 whole entry): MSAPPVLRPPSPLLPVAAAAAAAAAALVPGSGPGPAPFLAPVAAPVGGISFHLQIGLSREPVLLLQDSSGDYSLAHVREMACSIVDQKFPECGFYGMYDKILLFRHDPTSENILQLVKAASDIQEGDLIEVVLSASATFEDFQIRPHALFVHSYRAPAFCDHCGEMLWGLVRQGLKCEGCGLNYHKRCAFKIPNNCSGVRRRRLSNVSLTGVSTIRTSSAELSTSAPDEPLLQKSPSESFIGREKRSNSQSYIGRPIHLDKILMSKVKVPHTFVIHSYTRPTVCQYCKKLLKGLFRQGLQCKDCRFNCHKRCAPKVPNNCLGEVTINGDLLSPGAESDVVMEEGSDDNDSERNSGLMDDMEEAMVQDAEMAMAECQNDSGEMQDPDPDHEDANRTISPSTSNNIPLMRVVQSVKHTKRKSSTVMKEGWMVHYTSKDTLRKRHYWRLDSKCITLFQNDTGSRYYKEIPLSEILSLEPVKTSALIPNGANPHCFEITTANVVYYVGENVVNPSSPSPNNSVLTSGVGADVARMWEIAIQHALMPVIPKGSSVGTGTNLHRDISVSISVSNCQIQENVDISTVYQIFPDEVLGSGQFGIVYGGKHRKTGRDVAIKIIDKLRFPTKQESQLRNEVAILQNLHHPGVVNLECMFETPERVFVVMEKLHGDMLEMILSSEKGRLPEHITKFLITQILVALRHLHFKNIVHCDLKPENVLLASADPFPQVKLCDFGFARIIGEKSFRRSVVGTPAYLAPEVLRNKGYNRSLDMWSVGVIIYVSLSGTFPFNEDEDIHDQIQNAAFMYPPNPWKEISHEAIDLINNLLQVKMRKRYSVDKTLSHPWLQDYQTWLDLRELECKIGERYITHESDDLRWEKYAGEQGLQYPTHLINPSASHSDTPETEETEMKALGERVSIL
Assay: Protein kinase selectivity panel
Format: biochemical
Conditions: 1.0 μM compound, 10 μM ATP
measured-endpoint: Activity at Protein Kinase Assays (% of control), PKCμ(h)

O=C1NC(=O)C2=C1c1cn(c3ccccc13)CCCc1cc(nc(N3CCCC3)c1)CCCn1cc2c2ccccc21 118 % of control

Entry CN(C)c1cc2cc(n1)CCCn1cc(c3ccccc31)C1=C(C(=O)NC1=O)c1cn(c3ccccc13)CCC2 has what Activity at Protein Kinase Assays (% of control), PKCμ(h)?
118 % of control

What about CN(C)c1nc2ccc1CCCCn1cc(c3ccccc31)C1=C(C(=O)NC1=O)c1cn(c3ccccc13)CCC2 ?
110 % of control

What about O=C1NC(=O)C2=C1c1cn(c3ccccc13)CCCc1ccc(c(N3CCCC3)n1)CCCn1cc2c2ccccc21 ?
113 % of control

###

Molecular target: SAPK4(h) (Homo sapiens)
Sequence (O15264 whole entry): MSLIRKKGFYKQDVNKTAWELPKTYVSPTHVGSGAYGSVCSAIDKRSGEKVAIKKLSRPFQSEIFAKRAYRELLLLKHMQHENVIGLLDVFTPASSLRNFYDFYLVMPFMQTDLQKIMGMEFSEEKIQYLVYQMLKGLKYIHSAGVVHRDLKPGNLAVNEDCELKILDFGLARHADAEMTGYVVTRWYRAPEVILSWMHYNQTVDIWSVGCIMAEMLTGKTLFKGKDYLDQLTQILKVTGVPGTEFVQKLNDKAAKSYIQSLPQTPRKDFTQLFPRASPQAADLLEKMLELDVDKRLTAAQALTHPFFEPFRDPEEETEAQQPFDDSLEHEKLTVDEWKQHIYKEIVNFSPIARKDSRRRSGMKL
Experiment: Protein kinase selectivity panel
Format: biochemical
Conditions: 1.0 μM compound, 10 μM ATP
Procedure: Protein kinase selectivity assays were performed as described in the scientific literature (Davies, S. P., et al., Biochem. J. 2000, 351, 95-105). Briefly, protein kinases were assayed for their ability to phosphorylate the appropriate peptide/protein substrates in the presence of 1.0 μM compound. Assays were done using 10 μM ATP and were linear with respect to time. […]
Measured Activity at Protein Kinase Assays (% of control), SAPK4(h) values are reported for all entries that follow.

Solved entries (count: 3):
compound	assay-target	result
CN(C)c1nc2ccc1CCCCn1cc(c3ccccc31)C1=C(C(=O)NC1=O)c1cn(c3ccccc13)CCC2 [Cpd 1]	SAPK4(h) (Homo sapiens)	101 % of control
O=C1NC(=O)C2=C1c1cn(c3ccccc13)CCCc1cc(nc(N3CCCC3)c1)CCCn1cc2c2ccccc21 [Cpd 6]	SAPK4(h) (Homo sapiens)	102 % of control
O=C1NC(=O)C2=C1c1cn(c3ccccc13)CCCc1ccc(c(N3CCCC3)n1)CCCn1cc2c2ccccc21 [Cpd 7]	SAPK4(h) (Homo sapiens)	102 % of control

// next item, Activity at Protein Kinase Assays (% of control), SAPK4(h) requested
Entry CN(C)c1cc2cc(n1)CCCn1cc(c3ccccc31)C1=C(C(=O)NC1=O)c1cn(c3ccccc13)CCC2 [Cpd 2] has what Activity at Protein Kinase Assays (% of control), SAPK4(h)?
104 % of control

###

Target: EphB4(h) (Homo sapiens)
Sequence (P54760 16-987): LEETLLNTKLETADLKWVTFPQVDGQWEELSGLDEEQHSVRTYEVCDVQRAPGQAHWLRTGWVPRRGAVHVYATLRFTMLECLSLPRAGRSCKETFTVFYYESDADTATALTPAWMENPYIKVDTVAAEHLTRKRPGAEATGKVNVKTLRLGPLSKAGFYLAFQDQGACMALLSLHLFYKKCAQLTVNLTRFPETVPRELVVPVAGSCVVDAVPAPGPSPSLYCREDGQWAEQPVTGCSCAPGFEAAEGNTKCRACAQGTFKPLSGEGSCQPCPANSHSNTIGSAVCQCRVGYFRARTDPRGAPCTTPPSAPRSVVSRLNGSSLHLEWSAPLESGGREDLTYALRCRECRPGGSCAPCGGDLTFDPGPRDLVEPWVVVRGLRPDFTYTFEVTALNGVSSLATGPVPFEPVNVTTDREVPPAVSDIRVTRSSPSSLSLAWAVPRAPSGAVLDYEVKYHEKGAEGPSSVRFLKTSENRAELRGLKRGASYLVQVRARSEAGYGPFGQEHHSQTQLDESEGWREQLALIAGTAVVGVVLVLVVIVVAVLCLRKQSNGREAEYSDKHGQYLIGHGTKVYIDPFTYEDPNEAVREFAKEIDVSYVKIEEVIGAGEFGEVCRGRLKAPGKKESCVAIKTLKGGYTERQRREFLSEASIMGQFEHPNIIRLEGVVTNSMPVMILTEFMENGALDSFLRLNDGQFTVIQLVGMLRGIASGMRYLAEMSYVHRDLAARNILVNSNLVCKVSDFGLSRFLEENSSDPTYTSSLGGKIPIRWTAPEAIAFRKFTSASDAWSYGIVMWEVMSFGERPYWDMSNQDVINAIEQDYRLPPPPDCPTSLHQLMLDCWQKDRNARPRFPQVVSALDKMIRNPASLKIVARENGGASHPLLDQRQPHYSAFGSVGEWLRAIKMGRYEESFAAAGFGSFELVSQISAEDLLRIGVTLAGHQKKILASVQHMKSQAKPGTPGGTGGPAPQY
Test: Protein kinase selectivity panel
Format: biochemical
Settings: 1.0 μM compound, 10 μM ATP
measured-endpoint: Activity at Protein Kinase Assays (% of control), EphB4(h)

CN(C)c1cc2cc(n1)CCCn1cc(c3ccccc31)C1=C(C(=O)NC1=O)c1cn(c3ccccc13)CCC2 103 % of control
CN(C)c1nc2ccc1CCCCn1cc(c3ccccc31)C1=C(C(=O)NC1=O)c1cn(c3ccccc13)CCC2 89 % of control
O=C1NC(=O)C2=C1c1cn(c3ccccc13)CCCc1cc(nc(N3CCCC3)c1)CCCn1cc2c2ccccc21 109 % of control

Checklist item: Activity at Protein Kinase Assays (% of control), EphB4(h) tested on EphB4(h) (Homo sapiens), entry O=C1NC(=O)C2=C1c1cn(c3ccccc13)CCCc1ccc(c(N3CCCC3)n1)CCCn1cc2c2ccccc21 , value?
100 % of control
